Answer each item with its documented protein stability index.
B1: FAM98B (parent)
chain: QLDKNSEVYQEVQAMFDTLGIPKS

- Variants of: B1
- METHOD_DESCRIPTION: protein stability index of a GFP-peptide fusion (GPS, HEK-293T) (PSI 1-6); higher = more stable;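 also: lentivirally expressed fusions sorted by FACS into six bins by GFP to DsRed ratio, PSI derived from sequencing read proportions per bin multiplied by bin number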
- CONDITION_SET: c terminus: a fixed tail appended
Returns: the value as a bare number; no unit string appended.

Q: Give the measured protein stability index for K23Y
Ans: 2.71

Q: Give the measured protein stability index for K4D
Ans: 3.44

Q: Give the measured protein stability index for K23S
Ans: 3.24

Q: Give the measured protein stability index for E11H
Ans: 3.46

Q: Give the measured protein stability index for Q1I
Ans: 3.23

Q: Give the measured protein stability index for E11F
Ans: 2.07

Q: Give the measured protein stability index for D3R
Ans: 3.21

Q: Give the measured protein stability index for D17N
Ans: 3.73

Q: Give the measured protein stability index for E7N
Ans: 3.2

Q: Give the measured protein stability index for Q1V
Ans: 2.7

Q: Give the measured protein stability index for I21C
Ans: 3.53

Q: Give the measured protein stability index for L2R
Ans: 3.58

Q: Give the measured protein stability index for N5G
Ans: 3.98

Q: Give the measured protein stability index for I21P
Ans: 3.6

Q: Give the measured protein stability index for F16V
Ans: 3.94

Q: Give the measured protein stability index for N5K
Ans: 3.88

Q: Give the measured protein stability index for K23L
Ans: 2.46

Q: Give the measured protein stability index for K4G
Ans: 3.5

Q: Give the measured protein stability index for E11D
Ans: 2.86

Q: Give the measured protein stability index for I21D
Ans: 3.8

Q: Give the measured protein stability index for G20I
Ans: 3.21

Q: Give the measured protein stability index for P22W
Ans: 2.98

Values compiled from the supplement of paper PMC10567573.
